- EXPERIMENT_NOTES: NCI Yeast Anticancer Drug Screen. Data for the mlh1 rad18 strain (AID 175)
- ASSAY_CONTEXT: S. cerevisiae mlh1 rad18 strain growth inhibition; at 50.0 µM; stronger effect = higher value
- Protocol: Growth inhibition of yeast strains with defined genetic alterations is measured as a screen for potential anti-cancer activity. Selected strains with alterations in DNA damage repair or cell cycle control were exposed to compounds and growth inhibition was measured relative to vehicle treated controls. The strain used in this assay is mlh1 rad18
This is part of a sample that, as a whole, favours compounds with a hit. Of some 79,000 tested, about 15% had one in any assay.
REPORTED_PROPERTY: growth inhibition (%)
Supply the numeric figure in %, leaving out any unit text.

O=C(NC(=O)c1ccc(Cl)c(Cl)c1)Nc1ccc(Cl)cc1 :: 8
CCCCCC(=O)c1ccc2[nH]c3c(C)cc([N+](=O)[O-])c(C)c3c2c1 :: -10.3
CC(C)C[N+](=O)[O-] :: 11.3
COc1ccc(NC(=O)CC/C(CC(=O)c2ccco2)=N/Nc2ccc([N+](=O)[O-])cc2[N+](=O)[O-])cc1 :: 2.95
O=S1c2ccccc2N=C(c2ccc3ccccc3c2)CC1C1=CC=CCC1 (configuration not stated) :: -11.8

Input line: // query growth inhibition value for entry CC(=O)[OH+]c1c(I)cc(I)cc1C(=O)[O-].CC(=O)[OH+]c1c(I)cc(I)cc1C(=O)[O-].[Cu+2]
Output line: 4.95
